- measured_target: cellular IDO1 in HeLa cells (Homo sapiens)
- Construct: endogenous in cells; host or cells: HeLa cells (American Type Tissue Culture Collection), induced with human recombinant IFN-γ
- Sequence (P14902 whole entry): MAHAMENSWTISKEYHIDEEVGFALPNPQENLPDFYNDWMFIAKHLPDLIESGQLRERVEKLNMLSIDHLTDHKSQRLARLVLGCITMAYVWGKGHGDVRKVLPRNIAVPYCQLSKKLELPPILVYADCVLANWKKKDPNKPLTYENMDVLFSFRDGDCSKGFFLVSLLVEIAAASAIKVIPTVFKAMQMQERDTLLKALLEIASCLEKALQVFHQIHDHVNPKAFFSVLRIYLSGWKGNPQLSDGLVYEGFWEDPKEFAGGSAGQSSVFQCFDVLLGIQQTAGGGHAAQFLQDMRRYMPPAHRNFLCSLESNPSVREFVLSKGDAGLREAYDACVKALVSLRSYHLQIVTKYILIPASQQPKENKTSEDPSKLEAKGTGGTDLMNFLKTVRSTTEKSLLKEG
- assay_explanation: HeLa cell-based IDO1 Kyn (kynurenine) production assay
- experimental_context: Table 1, 5-substituted imidazo[1,5-a]pyridines, IFN-γ 100 ng/mL, 48 hours
value_type: EC50 (µM)

These recorded examples may help you get a feel for the data.
INSERT INTO results (compound, recorded_measurement) VALUES
  ('OC(c1cc(C(F)(F)F)cc2cncn12)C1CCCCC1 (single isomer, unassigned) [Example A109a]', 2.1),
  ('COc1cc(C(O)C2CCCCC2)n2cncc2c1Cl (stereo not shown)', 6.76),
  ('OC(CC1CCCCC1)c1c(Cl)ccc2cncn12 (stereo not shown) [Example A117]', 0.143),
  ('OC(c1cc(C(F)(F)F)cc2cncn12)C1CCCCCC1 (stereo not shown)', 3.16),
  ('OC(c1c(C(F)(F)F)ccc2cncn12)C1CCCC1 (stereo not shown)', 2.04);

[P] CC(C)c1ccc2cncn2c1C(O)C1CCCCC1 (stereo not shown)
[Q] COc1ccc2cncn2c1C(O)C1CCCCC1 (stereo not shown)
[R] OCC1(C(O)c2cc(Cl)cc3cncn23)CCCCC1 (stereo not shown)
[S] OC(c1c(I)ccc2cncn12)C1CCCCC1 (stereo not shown) [Example A125]
Thanks in advance: please rank these 4 entries by EC50, highest to lowest. Could you list the labels in the order requested?
R, Q, S, P

[A] C=C(C)c1ccc2cncn2c1C(O)C1CCCCC1 (stereo not shown)
[B] OC(CC1CCCCC1)c1c(Br)ccc2cncn12 (stereo not shown) [Example A119]
[C] OC(CC1CCCCC1)c1c(C(F)(F)F)ccc2cncn12 (single isomer, unassigned) [Example A127a]
[D] OC(CC1CCCCC1)c1c(Br)ccc2cncn12 (single isomer, unassigned) [Example A119a]
Rank ascending by EC50. List the labels in the requested order.
D, C, B, A
